biological target: Somatostatin receptor type 3 (Homo sapiens)
Sequence (P32745 whole entry): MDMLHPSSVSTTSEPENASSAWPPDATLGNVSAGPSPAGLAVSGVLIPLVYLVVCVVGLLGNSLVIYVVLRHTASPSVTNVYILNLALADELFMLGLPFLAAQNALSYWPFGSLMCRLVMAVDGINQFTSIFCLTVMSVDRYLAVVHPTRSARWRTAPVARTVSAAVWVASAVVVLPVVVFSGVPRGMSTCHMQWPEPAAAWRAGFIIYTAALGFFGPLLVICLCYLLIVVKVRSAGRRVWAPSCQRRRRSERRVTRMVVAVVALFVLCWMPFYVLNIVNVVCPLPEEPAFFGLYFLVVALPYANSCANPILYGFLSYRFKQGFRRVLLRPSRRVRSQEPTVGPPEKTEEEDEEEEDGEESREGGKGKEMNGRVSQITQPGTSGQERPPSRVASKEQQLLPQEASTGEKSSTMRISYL
Bridge positions count the residues as written; N and C are the ends. Square brackets hold non-standard residues; d marks the D form. Peptide text beside a SMILES is read from it. * marks the point of attachment. NH(1-naphthylmethyl) = c1ccc2c(CN*)cccc2c1; Phe(4-Cl) = N[C@@H](Cc1ccc(Cl)cc1)C(=O)O; Abu = CC[C@H](N)C(=O)O
Below, each entry is listed with its recorded pKi.
// scale note: pKi = -log10(conc_M); give the bare number

Input: Could you tell me which pKi is on file for NCCCCC1NC(=O)C(Cc2c[nH]c3ccccc23)NC(=O)C(Cc2ccc(O)cc2)NC(=O)C(NC(=O)C(N)Cc2ccccc2)CSSCC(C(=O)NCc2cccc3ccccc23)NC(=O)C(CO)NC1=O (stereo not drawn) [NC4-28B] (H-FCYWKSC-{NH(1-naphthylmethyl)}; disulfide 2-7; configuration not given here) ?
Output: 8.05

Input: Next record, please: CC[C@H](NC(=O)[C@@H](N)Cc1ccc(Cl)cc1)C(=O)N[C@@H](Cc1ccc(O)cc1)C(=O)N[C@H](Cc1c[nH]c2ccccc12)C(=O)N[C@@H](CCCCN)C(=O)N[C@H](C(=O)N[C@@H](C)C(=O)N[C@H](Cc1ccccc1)C(N)=O)C(C)C [BIM 23067] (H-[Phe(4-Cl)][Abu]Y[dW]KVA[dF]-NH2)
Output: 7.84

Input: Next record, please: C[C@@H](O)[C@H](NC(=O)[C@H](Cc1ccccc1)NC(=O)[C@@H](NC(=O)[C@H](CCCCN)NC(=O)[C@@H](Cc1c[nH]c2ccccc12)NC(=O)[C@H](Cc1ccc(O)cc1)NC(=O)[C@H](Cc1ccc(Cl)cc1)NC(=O)[C@H](N)Cc1ccccc1)[C@@H](C)O)C(N)=O [BIM 23068] (H-[dF][Phe(4-Cl)]Y[dW]KTFT-NH2)
Output: 8.81

----------
target: Somatostatin receptor type 3 (Homo sapiens)
Bridge positions count the residues as written; N and C are the ends. Square brackets hold non-standard residues; d marks the D form. Peptide text beside a SMILES is read from it. * marks the point of attachment. NH(1-naphthylmethyl) = c1ccc2c(CN*)cccc2c1; 2Nal = N[C@@H](Cc1ccc2ccccc2c1)C(=O)O; Abu = CC[C@H](N)C(=O)O
Endpoint: pKi
// scale note: pKi = -log10(conc_M); give the bare number

Molecule	Endpoint	Recorded measurement
CC(O)C1NC(=O)C(CCCCN)NC(=O)C(Cc2c[nH]c3ccccc23)NC(=O)C(Cc2ccccc2)NC(=O)C(NC(=O)C(N)Cc2ccccc2)CSSCC(C(=O)NCc2cccc3ccccc23)NC1=O (stereo not drawn) [EC5-21] (H-FCFWKTC-{NH(1-naphthylmethyl)}; disulfide 2-7; configuration not given here)	pKi	7.16
CC[C@@H]1NC(=O)[C@H](CCCCN)NC(=O)[C@@H](Cc2c[nH]c3ccccc23)NC(=O)[C@H](Cc2ccc(O)cc2)NC(=O)[C@@H](NC(=O)[C@H](N)Cc2ccccc2)CSSC[C@@H](C(=O)N[C@@H](Cc2ccc3ccccc3c2)C(N)=O)NC1=O [D-Phe-Cys-Tyr-D-Trp-Lys-Abu-Cys-Nal-NH] (H-[dF]CY[dW]K[Abu]C[2Nal]-NH2; disulfide 2-7)	pKi	10.05

Input: Could you tell me which pKi is on file for CC(C)[C@@H]1NC(=O)[C@H](CCCCN)NC(=O)[C@@H](Cc2c[nH]c3ccccc23)NC(=O)[C@H](Cc2ccc(O)cc2)NC(=O)[C@@H](NC(=O)[C@H](N)Cc2ccc3ccccc3c2)CSSC[C@@H](C(=O)N[C@H](C(N)=O)[C@@H](C)O)NC1=O ?
Output: 7.37
